- study system: Protein deacetylase HDAC6 (Homo sapiens) (UniProt Q9UBN7)
- Sequence (whole entry): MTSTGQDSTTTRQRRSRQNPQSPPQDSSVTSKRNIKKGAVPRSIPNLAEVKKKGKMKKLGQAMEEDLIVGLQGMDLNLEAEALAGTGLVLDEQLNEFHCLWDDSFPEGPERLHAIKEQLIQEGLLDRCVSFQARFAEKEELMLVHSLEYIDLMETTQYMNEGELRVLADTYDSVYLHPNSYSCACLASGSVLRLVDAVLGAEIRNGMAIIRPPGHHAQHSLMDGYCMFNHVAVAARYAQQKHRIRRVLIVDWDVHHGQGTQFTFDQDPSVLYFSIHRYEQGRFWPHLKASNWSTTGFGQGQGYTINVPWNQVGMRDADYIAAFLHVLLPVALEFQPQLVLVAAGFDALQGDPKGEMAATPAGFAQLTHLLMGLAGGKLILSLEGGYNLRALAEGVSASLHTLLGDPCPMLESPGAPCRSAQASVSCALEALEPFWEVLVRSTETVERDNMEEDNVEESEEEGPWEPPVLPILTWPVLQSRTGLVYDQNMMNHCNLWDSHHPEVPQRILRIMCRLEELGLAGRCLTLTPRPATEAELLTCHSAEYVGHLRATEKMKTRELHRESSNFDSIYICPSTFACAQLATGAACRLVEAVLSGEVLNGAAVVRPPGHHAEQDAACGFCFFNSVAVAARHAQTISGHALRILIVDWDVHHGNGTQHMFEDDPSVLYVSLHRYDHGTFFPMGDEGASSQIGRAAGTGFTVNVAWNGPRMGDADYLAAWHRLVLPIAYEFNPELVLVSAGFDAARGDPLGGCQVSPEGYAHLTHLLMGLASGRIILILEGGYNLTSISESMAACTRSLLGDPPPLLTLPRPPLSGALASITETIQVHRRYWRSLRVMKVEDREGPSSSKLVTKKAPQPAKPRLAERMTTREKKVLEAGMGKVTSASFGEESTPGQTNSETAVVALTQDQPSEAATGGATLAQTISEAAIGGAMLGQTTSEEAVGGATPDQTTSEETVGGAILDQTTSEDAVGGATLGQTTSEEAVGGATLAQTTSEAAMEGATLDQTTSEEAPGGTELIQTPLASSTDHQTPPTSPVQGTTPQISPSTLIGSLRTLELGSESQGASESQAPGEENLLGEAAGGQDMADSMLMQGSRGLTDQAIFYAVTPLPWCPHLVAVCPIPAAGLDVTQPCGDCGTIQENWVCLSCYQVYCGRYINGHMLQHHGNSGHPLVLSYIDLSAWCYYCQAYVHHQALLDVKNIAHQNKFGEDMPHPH
- condition info: at 10 µM
Hit rate of the full screen: of about 5,600 compounds, about 390 (7%) showed an effect of 50% or more. Shown is part of a subset that was picked to be rich in strong results. Starred links: 1 amine or outer side, 2 acyl side, 3 side chain; linkers in the order of their positions; H or OH if unused. Positions of bridges follow the written chain, without caps; N, C: chain ends. Non-standard residues stand in square brackets, D forms with d. Residues, ends and D or L forms follow the SMILES beside them. *: point of attachment. pTerphenylCO(4''-OnC5H11) = CCCCCOc1ccc(-c2ccc(-c3ccc(C(=O)*)cc3)cc2)cc1; Orn(4R-OH,5R-OH) = O=C([C@H](C[C@@H](O)[C@@H](O)N[*:3])N[*:1])[*:2]; hTyr(3S-OH,4S-OH) = N[C@H](C(=O)O)[C@H](O)[C@@H](O)c1ccc(O)cc1; Pro(3S-OH,4S-Me) = C[C@H]1CN[C@H](C(=O)O)[C@H]1O; Hyp = O=C(O)[C@@H]1C[C@@H](O)CN1
recorded metric: inhibition (%)
Give a bare numeral; the unit % is implied.

Which inhibition is listed for CC(C1=C(CCN(C)C)Cc2ccccc21)c1ccccn1 (configuration not stated) ?
-6.73

Please do the same for CCCCCOc1ccc(-c2ccc(-c3ccc(C(=O)N[C@H]4C[C@@H](O)[C@@H](O)NC(=O)[C@@H]5[C@@H](O)[C@@H](C)CN5C(=O)[C@H]([C@@H](C)O)NC(=O)[C@H]([C@H](O)[C@@H](O)c5ccc(O)cc5)NC(=O)[C@@H]5C[C@@H](O)CN5C(=O)[C@H]([C@@H](C)O)NC4=O)cc3)cc2)cc1 ({pTerphenylCO(4''-OnC5H11)}-[Orn(4R-OH,5R-OH)]T[Hyp][hTyr(3S-OH,4S-OH)]T[Pro(3S-OH,4S-Me)]; lactam 1-C) as well.
16.9

Please do the same for CN(C)CCC=C1c2ccccc2CCc2ccccc21 as well.
60.4

Please do the same for C[C@H](CCC(=O)O)[C@H]1CC[C@H]2[C@@H]3[C@@H](O)C[C@@H]4C[C@H](O)CC[C@]4(C)[C@H]3CC[C@]12C as well.
62.8

Please do the same for C[C@H](CCC(=O)O)[C@H]1CC[C@H]2[C@@H]3CC[C@@H]4C[C@H](O)CC[C@]4(C)[C@H]3CC[C@]12C as well.
-5.26

Please do the same for Cc1nc2c(c(=O)[nH]1)CSCC2 as well.
36

Please do the same for C[C@H](CCC(=O)O)[C@H]1CC[C@H]2[C@@H]3[C@H](O)C[C@@H]4C[C@H](O)CC[C@]4(C)[C@H]3CC[C@]12C as well.
3.14

Measured values drawn from ChEMBL document CHEMBL4808148 for this set.
